Numbers sourced from patent US6942979B1.

molecular target: TRAAK channel (Mus musculus, UniProt O88454); construct: an open reading phase of 1197 nucleotides coding for a polypeptide of 398 residues; expressed in transfected cells; host or cells: COS cells (transient); assay: TRAAK currents in transfected COS cells, imposed voltage technique; type: cell-based; settings: concentration of 10 μM
Sequence (O88454 whole entry): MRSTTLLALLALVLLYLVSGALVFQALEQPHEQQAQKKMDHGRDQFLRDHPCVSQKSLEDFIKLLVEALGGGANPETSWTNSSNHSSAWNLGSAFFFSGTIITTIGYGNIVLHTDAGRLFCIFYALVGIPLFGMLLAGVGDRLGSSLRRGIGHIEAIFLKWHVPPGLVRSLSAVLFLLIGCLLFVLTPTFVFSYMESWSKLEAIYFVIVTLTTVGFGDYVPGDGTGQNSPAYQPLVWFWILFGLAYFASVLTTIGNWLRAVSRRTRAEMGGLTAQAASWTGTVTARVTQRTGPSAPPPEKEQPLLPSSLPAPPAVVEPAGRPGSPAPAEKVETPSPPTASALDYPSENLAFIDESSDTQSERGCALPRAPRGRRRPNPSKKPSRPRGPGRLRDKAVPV
measurement_name: activation of the TRAAK channel by fatty acids and derivatives

Exercise: Need activation of the TRAAK channel by fatty acids and derivatives of CCCCCCCCCCCCCCCC(=O)O [palmitic, palmitic acid] , thanks.
Solution: no effect

Exercise: Input CCC=CCC=CCC=CCC=CCC=CCC=CCCC(=O)OC [DOHA-ME]
Solution: inactive

Exercise: Input CCCCCCCCCCCCCCCCCCCC(=O)O [arachidic, arachidic acid]
Solution: no effect

Exercise: Input CCCCC/C=C\C/C=C\C/C=C\C/C=C\CCCC(=O)OC [AA-ME]
Solution: inactive

Exercise: Input CCCCCCCC/C=C\CCCCCCCC(=O)O [oleic, oleic acid]
Solution: activation

Next:
Exercise: Need activation of the TRAAK channel by fatty acids and derivatives of CCCCC/C=C\C/C=C\C/C=C\C/C=C\CCCCO [AA-OH] , thanks.
Solution: inactive

Exercise: Input CC/C=C\C/C=C\C/C=C\C/C=C\C/C=C\C/C=C\CCC(=O)O [docosohexaenoic, docosohexaenoic acid]
Solution: activation

Exercise: Input CCCCC/C=C\C/C=C\CCCCCCCC(=O)O [linoleic, linoleic acid]
Solution: activation

Exercise: Input CCCCCCCCCCCCCCCCCC(=O)O [stearic, stearic acid]
Solution: no effect
